System: HCT-116
Experiment: NCI-60 human tumor cell line screen, colon HCT-116
Conditions: read-out: cytotoxicity (GI50) colon HCT-116; 50% growth inhibition
Here, each record is paired with measured GI50 data.
Express your answer in nM, writing the number without its unit.

COc1cnc2c(c1)C(=O)c1c-2n(CCCN2CCOCC2)c(=O)c2cc([N+](=O)[O-])ccc12 [compound 10]; 50

Moving on to another compound below.
Ask: Fill: GI50 (HCT-116) for this compound O=C1c2ccccc2-c2c1c1ccc([N+](=O)[O-])cc1c(=O)n2CCCn1ccnc1 [compound 7]
Result: 274

* * *

Tested on: NCI-60 human tumor cell lines
Conditions: NCI-60 human tumor cell lines (all cell lines tested)
Observation type: GI50 (nM)
Express your answer in nM, writing the number without its unit.

Ask: Answer with reported GI50 of O=C1c2ccccc2-c2c1c1ccc(Cl)cc1c(=O)n2CCCn1ccnc1 [compound 8]
Result: 229

* * *

Test system: OVCAR-3
Assay: NCI-60 human tumor cell line screen, ovarian OVCAR-3
Conditions: read-out: cytotoxicity (GI50) ovarian OVCAR-3; 50% growth inhibition
Observation type: GI50 (nM)
Express your answer in nM, writing the number without its unit.

COc1cnc2c(c1)C(=O)c1c-2n(CCCN2CCOCC2)c(=O)c2cc([N+](=O)[O-])ccc12; 110
COc1cnc2c(c1)C(=O)c1c-2n(CCCn2ccnc2)c(=O)c2cc([N+](=O)[O-])ccc12; 25

Moving on to another compound below.
Ask: Answer with reported GI50 of O=C1c2ccccc2-c2c1c1ccc([N+](=O)[O-])cc1c(=O)n2CCCn1ccnc1
Result: 864

* * *

System: DU-145
Conditions: human, DU-145 prostate tumor cells
Observation type: GI50 (nM)
Express your answer in nM, writing the number without its unit.

Ask: Fill: GI50 (DU-145) for this compound O=C1c2ccccc2-c2c1c1ccc(Cl)cc1c(=O)n2CCCn1ccnc1 [compound 8]
Result: 309

* * *

Here, each record is paired with measured GI50 data.
System: HOP-62
Assay: NCI-60 human tumor cell line screen, lung HOP-62
Settings: read-out: cytotoxicity (GI50) lung HOP-62; 50% growth inhibition
Express your answer in nM, writing the number without its unit.

O=C1c2ccccc2-c2c1c1ccc([N+](=O)[O-])cc1c(=O)n2CCCn1ccnc1; 190

Moving on to another molecule below.
Ask: Answer with reported GI50 of COc1cnc2c(c1)C(=O)c1c-2n(CCCN2CCOCC2)c(=O)c2cc([N+](=O)[O-])ccc12
Result: 51

* * *

Biological target: recombinant Top1 (Homo sapiens, UniProt P11387)
Sequence (P11387 1-765): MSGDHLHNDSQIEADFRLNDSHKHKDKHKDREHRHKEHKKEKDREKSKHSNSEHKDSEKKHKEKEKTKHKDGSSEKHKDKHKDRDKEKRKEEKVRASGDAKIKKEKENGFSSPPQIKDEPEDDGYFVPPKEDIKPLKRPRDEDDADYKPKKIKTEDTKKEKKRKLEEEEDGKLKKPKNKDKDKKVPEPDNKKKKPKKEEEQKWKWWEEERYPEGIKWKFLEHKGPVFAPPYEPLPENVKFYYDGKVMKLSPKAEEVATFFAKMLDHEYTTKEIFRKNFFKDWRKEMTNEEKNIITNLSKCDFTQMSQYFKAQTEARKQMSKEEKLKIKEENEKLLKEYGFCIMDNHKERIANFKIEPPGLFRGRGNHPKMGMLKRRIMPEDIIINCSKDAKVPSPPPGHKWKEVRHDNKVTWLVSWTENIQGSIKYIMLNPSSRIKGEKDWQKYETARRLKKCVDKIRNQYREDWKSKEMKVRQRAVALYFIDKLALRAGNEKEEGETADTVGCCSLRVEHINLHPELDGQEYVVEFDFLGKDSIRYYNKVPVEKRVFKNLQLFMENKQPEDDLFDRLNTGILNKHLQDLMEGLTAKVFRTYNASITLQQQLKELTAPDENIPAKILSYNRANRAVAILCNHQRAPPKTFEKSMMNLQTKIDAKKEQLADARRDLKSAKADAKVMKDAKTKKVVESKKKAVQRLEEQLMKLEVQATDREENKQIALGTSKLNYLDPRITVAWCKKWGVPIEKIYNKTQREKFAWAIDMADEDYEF
Assay: Top1-mediated DNA cleavage assay
Assay type: biochemical
Details: semiquantitative scale relative to 1 μM MJ-III-65 (6) and 1 μM camptothecin (1)
Observation type: enzyme inhibitory activity Top1 (compound-induced DNA cleavage score)

Some entries whose results are on file:
COc1cnc2c(c1)C(=O)c1c-2n(CCCNC(C)C)c(=O)c2cc(Cl)ccc12 [16f]; ++
COc1cnc2c(c1)C(=O)c1c-2n(CCCN2CCCC2)c(=O)c2cc(F)ccc12 [17i]; +++
COc1cnc2c(c1)C(=O)c1c-2n(CCCN2CCC(O)CC2)c(=O)c2cc(F)ccc12 [17d]; +
CCNCCCn1c2c(c3ccc(F)cc3c1=O)C(=O)c1cc(OC)cnc1-2 [17h]; ++
O=C1c2ccccc2-c2c1c1ccc([N+](=O)[O-])cc1c(=O)n2CCCn1ccnc1; ++++

Ask: Answer with reported enzyme inhibitory activity Top1 (compound-induced DNA cleavage score) of CC[C@@]1(O)C(=O)OCc2c1cc1n(c2=O)Cc2cc3ccccc3nc2-1
Result: ++++

Ask: Answer with reported enzyme inhibitory activity Top1 (compound-induced DNA cleavage score) of COc1cnc2c(c1)C(=O)c1c-2n(CCCN2CCOCC2)c(=O)c2cc([N+](=O)[O-])ccc12
Result: ++++

Ask: Answer with reported enzyme inhibitory activity Top1 (compound-induced DNA cleavage score) of CNCCCn1c2c(c3ccc(F)cc3c1=O)C(=O)c1cc(OC)cnc1-2 [17g]
Result: +

Ask: Answer with reported enzyme inhibitory activity Top1 (compound-induced DNA cleavage score) of COc1cnc2c(c1)C(=O)c1c-2n(CCCNC(C)C)c(=O)c2cc(F)ccc12 [17f]
Result: ++

Ask: Answer with reported enzyme inhibitory activity Top1 (compound-induced DNA cleavage score) of COc1cnc2c(c1)C(=O)c1c-2n(CCCn2ccnc2)c(=O)c2cc(F)ccc12 [compound 17b]
Result: +++

* * *

Biological target: recombinant Top1 (Homo sapiens, UniProt P11387)
Sequence (P11387 1-765): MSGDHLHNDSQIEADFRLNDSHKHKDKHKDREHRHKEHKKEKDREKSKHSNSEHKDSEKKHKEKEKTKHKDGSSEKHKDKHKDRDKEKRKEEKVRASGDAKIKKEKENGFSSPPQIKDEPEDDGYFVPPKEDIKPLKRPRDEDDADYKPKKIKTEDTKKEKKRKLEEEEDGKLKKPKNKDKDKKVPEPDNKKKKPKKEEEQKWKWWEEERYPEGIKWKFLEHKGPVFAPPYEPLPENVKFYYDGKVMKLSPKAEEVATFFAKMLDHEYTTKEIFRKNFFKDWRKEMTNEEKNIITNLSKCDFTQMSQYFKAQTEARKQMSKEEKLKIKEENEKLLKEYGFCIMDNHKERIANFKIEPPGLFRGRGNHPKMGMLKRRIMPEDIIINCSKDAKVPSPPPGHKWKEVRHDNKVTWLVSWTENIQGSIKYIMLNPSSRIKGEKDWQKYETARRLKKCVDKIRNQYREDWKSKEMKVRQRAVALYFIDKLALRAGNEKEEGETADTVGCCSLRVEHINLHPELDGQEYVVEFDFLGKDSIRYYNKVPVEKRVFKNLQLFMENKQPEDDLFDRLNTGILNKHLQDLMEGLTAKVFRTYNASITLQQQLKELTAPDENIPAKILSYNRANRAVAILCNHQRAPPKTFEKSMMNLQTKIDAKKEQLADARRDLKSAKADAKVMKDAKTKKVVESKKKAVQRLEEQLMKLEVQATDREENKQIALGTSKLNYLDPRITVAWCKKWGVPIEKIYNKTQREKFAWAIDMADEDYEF
Assay: Top1-mediated DNA cleavage assay
Type: biochemical
Details: semiquantitative scale relative to 1 μM MJ-III-65 (6) and 1 μM camptothecin (1)
Observation type: enzyme inhibitory activity Top1 (compound-induced DNA cleavage score)

COc1cnc2c(c1)C(=O)c1c-2n(CCCN2CCNCC2)c(=O)c2cc(F)ccc12 [17e]; +
COc1cnc2c(c1)C(=O)c1c-2n(CCCNC2=NCCS2)c(=O)c2cc(F)ccc12 [17c]; ++
COc1cnc2c(c1)C(=O)c1c-2n(CCCN2CCN(C)CC2)c(=O)c2cc(Cl)ccc12 [compound 16j]; +
